# experimental system: T1, XPF-ΔPIP (Δ6 XPF) (Sulfolobus solfataricus, UniProt Q7LXL5 1-227)
# T1 sequence: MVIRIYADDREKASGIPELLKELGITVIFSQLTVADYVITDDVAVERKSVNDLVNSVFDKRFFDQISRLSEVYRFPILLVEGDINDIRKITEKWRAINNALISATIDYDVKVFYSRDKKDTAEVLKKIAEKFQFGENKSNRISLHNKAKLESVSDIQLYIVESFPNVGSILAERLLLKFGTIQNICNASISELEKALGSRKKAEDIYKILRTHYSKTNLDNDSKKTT
# measurement description: FRET
reported endpoint: pKd
Please keep in mind that pKd is minus log10 of the molar concentration; only the number is needed.

Prompt: Fill in: pKd of 3' flap, three vectors (global fit) (structured_DNA, dye positions as in Flap-12, Flap-13 and Flap-23) DNA 1: AGCCCGACAGCAGTCAGAGCTTGCTAGGACGGACGGT DNA 2: ACCGTCCGTCCTAGCAAGCATTTTTTT DNA 3: TCTGACTGCTGTCGGGCT is ___
Response: 5.51
